- ASSAY DETAILS: in vitro
- MEASUREMENT PARAMETERS: human, Caco-2, Caco-2 (cm/sec)
*1 amine or outer side, *2 acyl side, *3 side chain or, on linkers, in order; H or OH if unused. Where a SMILES comes first, the peptide text is derived from it. Bridges are numbered along the chain shown (N, C = ends). [ ]: non-standard residue; d: D form. The star is where a group is joined. ξ: configuration not given here. X7 = O=C(C[C@H](COCCO)N[*:1])[*:2]; NMeF = CN[C@@H](Cc1ccccc1)C(=O)O; NMeGABA = CN(CCCC(=O)[*:2])[*:1]; NMeL = CN[C@@H](CC(C)C)C(=O)O; Thr(3ξ) = CC(O)[C@H](N)C(=O)O; NMeV = CN[C@H](C(=O)O)C(C)C; NMeA = CN[C@@H](C)C(=O)O; Piperidide = C1CCN(*)CC1; NBuGly = CCCCNCC(=O)O; NPrGly = CCCNCC(=O)O; tBu = CC(C)(C)*
MEASURED QUANTITY: Papp

Provide each entry's Papp from the list below.
1. CC[C@H](C)[C@@H]1NC(=O)[C@H](C(C)C)N(C)C(=O)CCCN(C)C(=O)C[C@@H](C(=O)N2CCCCC2)NC(=O)[C@H](CC(C)C)N(C)C(=O)[C@H](C)N(C)C(=O)[C@H](Cc2ccc(O)cc2)NC(=O)[C@H](CC(C)C)N(C)C(=O)[C@H](COC(C)(C)C)NC(=O)[C@H](Cc2ccccc2)N(C)C(=O)[C@H](CC(C)C)N(C)C1=O [pd125] ([NMeGABA][NMeV]I[NMeL][NMeF]S(tBu)[NMeL]Y[NMeA][NMeL]D-Piperidide; lactam N-11)
2. CCCCN1CC(=O)N(C)[C@@H](Cc2ccccc2)C(=O)N[C@@H]([C@@H](C)CC)C(=O)N(C)[C@@H](CC(C)C)C(=O)N[C@@H](C(C)O)C(=O)N(CCC)CC(=O)N(C)[C@@H](Cc2ccccc2)C(=O)N(C)[C@@H](CC(C)C)C(=O)N[C@@H](COCCO)CC(=O)N(C)[C@@H](CC(C)C)C(=O)N[C@H](C(=O)N2CCCCC2)CC1=O (stereo partly drawn) [AP26] ([NBuGly][NMeF]I[NMeL][Thr(3ξ)][NPrGly][NMeF][NMeL][X7][NMeL]D-Piperidide; lactam N-11)

A)
0.45 ×10⁻⁶ cm/s
0.37 ×10⁻⁶ cm/s

###

- ASSAY DETAILS: in vitro
- MEASUREMENT PARAMETERS: human, Caco-2, Caco-2
Where a SMILES comes first, the peptide text is derived from it. Bridges are numbered along the chain shown (N, C = ends). [ ]: non-standard residue; d: D form. The star is where a group is joined. NMeAbu(3,3-F2-piperidino) = CN[C@@H](CCN1CCCC(F)(F)C1)C(=O)O; NMeAbu(4-morpholino) = CN[C@@H](CCN1CCOCC1)C(=O)O; NMeF = CN[C@@H](Cc1ccccc1)C(=O)O; NMeL = CN[C@@H](CC(C)C)C(=O)O; NMeV = CN[C@H](C(=O)O)C(C)C; NMeA = CN[C@@H](C)C(=O)O; Piperidide = C1CCN(*)CC1; NBuGly = CCCCNCC(=O)O; Sar = CNCC(=O)O; tBu = CC(C)(C)*
Can you tell me Papp for the items I'm about to list?
Answers are plain numbers, in ×10⁻⁶ cm/s.

Would you please look over these solved cases?
CCCCN1CC(=O)N(C)[C@@H](CCN2CCCC(F)(F)C2)C(=O)N[C@H](C(=O)N2CCCCC2)CC(=O)N(C)[C@@H](C)C(=O)N[C@@H](CC(C)C)C(=O)N(C)[C@@H](CC(C)C)C(=O)N(C)[C@@H](Cc2ccccc2)C(=O)N[C@@H](CC(C)C)C(=O)N(C)[C@@H](Cc2ccccc2)C(=O)N(C)[C@@H](C)C(=O)N[C@@H]([C@@H](C)O)C1=O [pd392] ([NMeA]L[NMeL][NMeF]L[NMeF][NMeA]T[NBuGly][NMeAbu(3,3-F2-piperidino)]D-Piperidide; lactam N-11)
3.5
CC(C)C[C@@H]1NC(=O)[C@H](C)N(C)C(=O)C[C@@H](C(=O)N2CCCCC2)NC(=O)[C@H](C(C)C)N(C)C(=O)CN(C)C(=O)[C@H]([C@@H](C)O)NC(=O)[C@H](CCN2CCCC(F)(F)C2)N(C)C(=O)[C@H](Cc2ccccc2)N(C)C(=O)[C@H](CC(C)C)NC(=O)[C@H](Cc2ccccc2)N(C)C(=O)[C@H](CC(C)C)N(C)C1=O [pd391] ([NMeA]L[NMeL][NMeF]L[NMeF][NMeAbu(3,3-F2-piperidino)]T[Sar][NMeV]D-Piperidide; lactam N-11)
2.4

From here, focus on the item given below.
Q) Please look up its Papp: CCCCN1CC(=O)N(C)[C@@H](CC(C)C)C(=O)N[C@@H](COC(C)(C)C)C(=O)N(C)[C@@H](Cc2ccccc2)C(=O)N(C)[C@@H](C(C)C)C(=O)N[C@H](C(=O)N2CCCCC2)CC(=O)N[C@H](CC(C)C)C(=O)N(C)[C@@H](Cc2ccccc2)C(=O)N[C@@H](CC(C)C)C(=O)N(C)[C@@H](CCN2CCOCC2)C(=O)N[C@@H]([C@@H](C)O)C1=O [pd452] ([dL][NMeF]L[NMeAbu(4-morpholino)]T[NBuGly][NMeL]S(tBu)[NMeF][NMeV]D-Piperidide; lactam N-11)
A) 1.3
